Taken from the supplement of paper PMC4466140.

Molecular target: CaLsb4
Assay: SPOT peptide array binding signal intensity (averaged, normalized) (arbitrary units (background-subtracted, floor 0; scale differs between SH3 domains)); higher = stronger binding of the SH3 domain to the peptide
Quantity: SPOT peptide array binding signal intensity
Just the number, please, no unit after it.

FFRRSELYLPNSSKA :: 13
FPPKRKPLLRPQRSD :: 1020
DGNEEKPLLPTRPNK :: 3160
RMVRRRPLRVQFSAR :: 1050
RRGPAPPPPPRASRP :: 1000

Inquiry: Form field: reported SPOT peptide array binding signal intensity of KNRKNLPTIPIRLSG
Reply text: 1340

Inquiry: I would be grateful if you could share the reported SPOT peptide array binding signal intensity for APPPPPRRATPEKKP .
Reply text: 1860
